These data points were gathered from PubChem BioAssay.

Target: Integrin beta-1 (Homo sapiens) + Integrin alpha-4 (Homo sapiens) (UniProt P13612+P05556)
Sequence (P05556 whole entry, looked up): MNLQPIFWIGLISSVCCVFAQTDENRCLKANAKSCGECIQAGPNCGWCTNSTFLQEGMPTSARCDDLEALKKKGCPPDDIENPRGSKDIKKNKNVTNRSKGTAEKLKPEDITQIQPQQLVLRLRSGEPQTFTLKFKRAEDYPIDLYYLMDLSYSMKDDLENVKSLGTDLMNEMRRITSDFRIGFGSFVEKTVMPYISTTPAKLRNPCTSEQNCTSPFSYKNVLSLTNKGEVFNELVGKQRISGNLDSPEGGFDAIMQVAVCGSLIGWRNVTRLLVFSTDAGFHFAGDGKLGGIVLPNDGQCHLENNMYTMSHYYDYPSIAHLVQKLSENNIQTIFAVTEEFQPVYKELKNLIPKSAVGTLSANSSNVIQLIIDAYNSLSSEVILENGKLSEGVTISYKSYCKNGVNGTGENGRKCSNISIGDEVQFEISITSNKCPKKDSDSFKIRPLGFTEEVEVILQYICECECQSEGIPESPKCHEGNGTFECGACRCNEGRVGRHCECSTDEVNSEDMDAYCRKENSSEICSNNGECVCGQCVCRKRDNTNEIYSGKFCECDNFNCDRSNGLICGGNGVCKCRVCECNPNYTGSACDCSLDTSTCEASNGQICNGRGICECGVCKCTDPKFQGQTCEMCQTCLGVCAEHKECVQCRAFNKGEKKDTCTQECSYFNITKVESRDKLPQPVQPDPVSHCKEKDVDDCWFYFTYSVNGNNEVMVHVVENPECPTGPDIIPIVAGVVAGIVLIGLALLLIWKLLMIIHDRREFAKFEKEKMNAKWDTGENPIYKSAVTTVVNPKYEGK
Sequence (P13612 whole entry, looked up): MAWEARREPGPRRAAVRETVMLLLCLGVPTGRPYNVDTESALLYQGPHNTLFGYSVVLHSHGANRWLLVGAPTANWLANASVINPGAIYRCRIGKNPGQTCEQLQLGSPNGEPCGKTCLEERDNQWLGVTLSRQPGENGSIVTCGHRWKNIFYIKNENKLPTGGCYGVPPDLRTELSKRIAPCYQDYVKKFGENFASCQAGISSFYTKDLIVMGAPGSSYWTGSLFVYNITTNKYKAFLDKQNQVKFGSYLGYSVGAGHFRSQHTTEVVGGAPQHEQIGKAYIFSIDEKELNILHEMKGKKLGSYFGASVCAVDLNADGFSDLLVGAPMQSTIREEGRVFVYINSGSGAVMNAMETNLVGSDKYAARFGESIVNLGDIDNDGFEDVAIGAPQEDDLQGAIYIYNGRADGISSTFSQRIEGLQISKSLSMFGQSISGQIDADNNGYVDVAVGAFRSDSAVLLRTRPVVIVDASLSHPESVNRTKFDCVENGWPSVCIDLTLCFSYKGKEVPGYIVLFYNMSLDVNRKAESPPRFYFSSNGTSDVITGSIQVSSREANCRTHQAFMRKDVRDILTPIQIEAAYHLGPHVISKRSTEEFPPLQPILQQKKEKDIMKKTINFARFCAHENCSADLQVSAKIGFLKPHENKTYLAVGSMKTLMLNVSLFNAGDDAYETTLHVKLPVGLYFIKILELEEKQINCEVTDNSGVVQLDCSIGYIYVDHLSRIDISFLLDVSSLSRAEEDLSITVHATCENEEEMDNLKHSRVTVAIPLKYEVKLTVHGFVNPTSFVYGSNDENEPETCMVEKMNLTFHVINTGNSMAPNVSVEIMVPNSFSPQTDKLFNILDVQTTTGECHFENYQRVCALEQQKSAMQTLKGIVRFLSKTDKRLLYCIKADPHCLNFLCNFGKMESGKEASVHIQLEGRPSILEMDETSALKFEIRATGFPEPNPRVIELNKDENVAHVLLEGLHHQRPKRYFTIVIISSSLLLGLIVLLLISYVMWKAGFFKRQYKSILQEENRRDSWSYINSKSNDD
Assay: alpha4beta1 integrin LIBS antibody binding reduction – U937 cells, HUTS-21 mAb, flow cytometry, validation set, VLA-4 allosteric modulator project, pilot screen (AID 2674);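 further: antibody binding induced by the VLA-4 ligand LDV present at three times its Kd; 0% = LDV ligand with antibody and no compound and 100% = antibody without LDV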
Details: HUTS-21 LIBS mAb binding, at 6.7 µM, stronger effect = higher value, binding induced by LDV ligand
observation_type: inhibition (%)

INSERT INTO assay_data (compound, reading) VALUES
  ('CC1=CC(=O)c2ccccc2C1=O', -5.11),
  ('COc1ccc(CNC(=O)N[C@H](C(=O)O)C(C)C)cc1OC', -9.06),
  ('Cc1ccc(S(=O)(=O)NC(=O)NN2CCCCCC2)cc1', 29.6),
  ('CCOc1ccc(C(=O)N2CCCC2C(=O)O)cc1 (stereo unspecified)', 13.4),
  ('O=c1c(-c2ccccc2)c(O)c2cccc3c2n1CCC3', 1.44),
  ('CC(=O)NC(NC(=S)N1CCCCCC1)C(Cl)(Cl)Cl (stereo unspecified)', -20.2),
  ('CC(=O)Nc1ccc(S(=O)(=O)c2ccc(N)cc2)cc1', 17.1),
  ('CCCCCC(O)c1cccc(OCc2ccc3ccccc3n2)c1 (stereo unspecified)', 22.7),
  ('COc1cc(C2NCCc3c2[nH]c2ccccc32)ccc1OC(C)C (stereo unspecified)', 5.61),
  ('O=c1c2[nH]c3ccccc3c2ncn1CCC1=CCCCC1', 14.2),
  ('CN(C)CCN(Cc1ccccc1)c1ccccn1', -6.15),
  ('COc1ccc2c(c1)C=CC1(O2)N(CCO)c2ccccc2C1(C)C (stereo unspecified)', -55.6),
  ('COc1ccc2[nH]c(=O)c(CN(C(=O)c3ccco3)C(C)C)cc2c1', 4.52),
  ('Cc1ccccc1C(=O)Oc1ccc(Sc2ccc(O)cc2)cc1', 0.58),
  ('Cc1ccc2nc(C)c3c(c2c1)OC(C(C)(Cl)Br)C3 (stereo unspecified)', 6.4),
  ('Cc1nonc1CN(C)C(=O)c1ccc(OC2CCN(C(=O)c3cccnc3)CC2)cc1', 12.3),
  ('CC1(C)CC(c2csc(N)n2)CCO1 (stereo unspecified)', 1.62),
  ('CC(C)OC(=O)c1ccc(NC(=O)c2cncc(Br)c2)cc1', 16.3),
  ('NCCc1ccc(O)c(O)c1', -10.8),
  ('O=C(O)CCn1cnc2ccccc2c1=O', 9.13),
  ('CCc1cc(/C(Cc2ccccn2)=N\O)c(O)cc1O', -14.1),
  ('CCc1nc2ccccc2n1Cc1ccc(OC)c(OC)c1', 3.14),
  ('COc1ccc(C(=O)N2c3cc4c(cc3C(C)=CC2(C)C)OCO4)cc1', -2.53),
  ('Cc1cccc2c(C(=O)O)cc(-c3cccnc3)nc12', 3.7),
  ('COCCN(CCOC)Cc1c(C)[nH]c2c(C)c(C)ccc2c1=O', -2.43),
  ('COC(=O)c1ccc(NC(=O)c2ccccc2SC)cc1', 1.62);
